- assay method text: Turbidimetric kinetic aqueous solubility assay
- Format: physicochemical
- details: pH 7, aqueous buffer, kinetic from dmso stock, turbidimetry 570 nm, PBS pH 7–7.2, 0.5% DMSO, 1 h; read-out: Aqueous Solubility (soluble at)
- Method: The determination of the aqueous solubility of compounds in this assay is based on the principle of turbidimetry. Turbidimetric methods rely on the measurement of light scattering from precipitate in solution to determine the solubility. Precipitation is identified by an absorbance increase due to blockage of the light by the particles at the wavelength of 570 nm. […] After 1h incubation, the plates were read on the envision (Perkin Elmer) at 570 nm. […]
quantity: solubility at 1 h (µg/mL)
One number for each entry, in µg/mL.

INSERT INTO measurements (molecule, unit_tag, measured_result) VALUES
  ('O=C(/C=C/c1csnn1)c1cc(Cl)ccc1Cl [HSI#05]', 'µg/mL', 4.8);

Request: Identify measured solubility at 1 h corresponding to O=C(/C=C/c1csnn1)c1cccc2ccccc12 [HSI#10]
Result: 4.4
